Values were extracted from PubChem BioAssay (NCI).

test.description: NCI Yeast Anticancer Drug Screen. Data for the mlh1 rad18 strain (AID 175)
reported.conditions: S. cerevisiae mlh1 rad18 strain growth inhibition; at 50.0 µM; hits give high values
Procedure: Growth inhibition of yeast strains with defined genetic alterations is measured as a screen for potential anti-cancer activity. Selected strains with alterations in DNA damage repair or cell cycle control were exposed to compounds and growth inhibition was measured relative to vehicle treated controls. The strain used in this assay is mlh1 rad18
Compounds without any hit were thinned out: in the full panel of roughly 79,000, 15% have a hit. Calls of active or inactive are those of the source. Rule as the data show it: active = growth inhibition above about 70%; inactive = the rest.
readout.type: growth inhibition

Cn1cnc([N+](=O)[O-])c1C(=O)O (tested in a mixture with another compound)    -1% (inactive)
CCCCC[CH2][Sn](=[O])[CH2]CCCCC    -11.4% (inactive)
COc1ccc(Oc2cc3c(cc2OC)CCN(C)C3)cc1    -6.6% (inactive)
COc1nc(N2CCNCC2)nc2c1CCCC2    -0.45% (inactive)
CCC1(c2ccc(C)cc2)C(=O)NC(=S)NC1=O    11.8% (inactive)
N[C@@H](Cc1ccc2oc3cc(=O)c4ccccc4c-3nc2c1)C(=O)O    35% (inactive)
CC1OC(O[C@@H]2C=C3CC[C@@H]4[C@H](CC[C@]5(C)[C@@H](c6ccc(=O)oc6)CC[C@]45O)[C@@]3(C)CC2)C(O)C(OC2OC(CO)C(O)C(O)C2O)C1O (stereo partly specified)    8.6% (inactive)
COc1cc(OC)c(SC)cc1CC(C)N (stereo unspecified)    -3.05% (inactive)

Supply growth inhibition value. Item: Oc1cccc(Cl)c1 8.3% (inactive)

Supply growth inhibition value. Item: O=C(Cl)c1ccc[nH]1 -0.15% (inactive)

Supply growth inhibition value. Item: C1C[N-]CC[N-]1.C1C[N-]CC[N-]1.N#CS.[Ni+2] -5.4% (inactive)

----------
test.description: NCI Yeast Anticancer Drug Screen. Data for the cln2 rad14 strain (AID 165);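 also: 0% = growth equal to vehicle treated cultures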
reported.conditions: S. cerevisiae cln2 rad14 strain, at 50.0 µM, hits give high values
The panel holds about 79,000 compounds, 15% with a hit somewhere; the sample as a whole holds those more often.
readout.type: growth inhibition (%)
# number only, unit % dropped from output

Reference set, count: 4
CC(=N\O)/C(C)=N/O.CC(=N\O)/C(C)=N/O.CC(=N\O)/C(C)=N/O.CC(=N\O)/C(C)=N/O.[Cu].[Cu]    -8.2
O=C1CCCN1CC#CCN1CCCC1    3.3
[N-]=[N+]=NC12CC3CC(CC(C3)C1)C2    -9.35
C1CC[N-]CC1.CN(C)P(=O)(N(C)C)N(C)C.OO.OO.[O]=[Mo]    17.4

Supply growth inhibition value. Item: O=P(CCP(=O)(c1ccccc1)c1ccccc1)(c1ccccc1)c1ccccc1 26.2

Supply growth inhibition value. Item: Cc1nc2ccccc2c(=O)n1-c1ccccc1Cl 12.9

----------
test.description: NCI Yeast Anticancer Drug Screen. Data for the sgs1 mgt1 strain (AID 161);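 also: 0% = growth of cultures given vehicle only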
reported.conditions: S. cerevisiae sgs1 mgt1 strain, at 50.0 µM, hits give high values
The panel holds about 79,000 compounds, 15% with a hit somewhere; the sample as a whole holds those more often. Active and inactive are the calls of the source. No stated cut-off is given here; in the data, active means growth inhibition above about 70%; inactive means the rest.
readout.type: growth inhibition

Supply growth inhibition value. Item: CC(/C=C/C1OC(=O)C=CC1C)=C\C(C)C/C=C/C(C)=C/C(CO)C(=O)C(C)C(O)C(C)C/C(C)=C/C(=O)O (configuration not stated) 81.9% (active)

----------
test.description: NCI Yeast Anticancer Drug Screen. Data for the mec2-1 strain (AID 157)
reported.conditions: S. cerevisiae mec2-1 strain, at 50.0 µM, hits give high values
Compounds without any hit were thinned out: in the full panel of roughly 79,000, 15% have a hit.
readout.type: growth inhibition (%)
# number only, unit % dropped from output

CCC(C)c1ccc(O)cc1 (stereo not drawn)    -2.9
CN1CCC[N+](C)=C1c1ccc(N(C)C)cc1    -12.3
CC(=O)C(C)(C)C    -1.45
C#CC(C)N1CCC2(CC1)C(=O)NCN2c1ccccc1 (stereo not drawn)    -6.1
O=C([O-])c1ccccc1[SH2+].[Cr+3].[NH-]CC[NH-].[NH-]CC[NH-].[O-][Cl+3]([O-])([O-])O    -1.95
O=[N+]([O-])c1c(Cl)cc(Cl)c([N+](=O)[O-])c1Cl    5.25
CCCCCCCCCCCCP(=O)(O)OCC(N)C(=O)O (stereo not drawn)    -21.6
O=C1C=CC2(C=C1)CCN=c1c(O)c3c(c(O)c12)=NC=N3    7.55

Supply growth inhibition value. Item: COc1ccc(NC2=C(C)C(=O)C3=C(C2=O)[C@H](COC(N)=O)[C@]2(OC)[C@@H]4N[C@@H]4CN32)cc1 79.7

Supply growth inhibition value. Item: CC(=O)C(CN1CCCCC1)C(c1ccccc1)c1c(O)c2ccccc2oc1=O (stereo not drawn) -9

Supply growth inhibition value. Item: O=S(=O)(C(Cl)Cl)C(Cl)(Cl)S(=O)(=O)C(Cl)Cl -53

Supply growth inhibition value. Item: CC12CCC3C4CCC(=O)C=C4CCC3C1CC1CC(=O)OC12 (stereo not drawn) 1

Supply growth inhibition value. Item: N#CC(C#N)=Cc1ccc(F)cc1 5

Supply growth inhibition value. Item: O=c1n(CC2CO2)c2ccccc2n1CC1CS1 (stereo not drawn) -36

Supply growth inhibition value. Item: CCCOP1(=O)C=C(C)C(Cl)=C(C)C1 (stereo not drawn) -4.6

Supply growth inhibition value. Item: Cc1ccc(-n2c(=S)[nH]c3ccccc3c2=O)cc1 -7.95

Supply growth inhibition value. Item: CC/C(=C(/CC)c1ccc(OP(=O)(Cl)N(CCCl)CCCl)cc1)c1ccc(OP(=O)(Cl)N(CCCl)CCCl)cc1 (stereo not drawn) -18

Supply growth inhibition value. Item: CCOP(O)(=S)OCC.[Sm] -14.6

Supply growth inhibition value. Item: O=CNC(CSC(c1ccccc1)c1ccccc1)C(=O)O (stereo not drawn) -5.55

Supply growth inhibition value. Item: N/C(=N\NC(=O)c1ccc([N+](=O)[O-])cc1)N[N+](=O)[O-] -12.2

Supply growth inhibition value. Item: CN(C)[C@@H]1C(=O)C(C(N)=O)=C(O)[C@]2(O)C(=O)C3C(=O)c4c(O)ccc(Cl)c4[C@](C)(O)[C@H]3C[C@@H]12 (stereo partly drawn) 7.5

Supply growth inhibition value. Item: CCCOC(=O)c1ccccc1N -1.25

Supply growth inhibition value. Item: COP(=O)(OC)C(O)C(Br)(Br)Br (stereo not drawn) 23.1

----------
test.description: NCI Yeast Anticancer Drug Screen. Data for the rad50 strain (AID 155);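 also: 0% = growth of vehicle-only cultures of the same strain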
reported.conditions: S. cerevisiae rad50 strain growth inhibition; at 50.0 µM; hits give high values
The panel holds about 79,000 compounds, 15% with a hit somewhere; the sample as a whole holds those more often. Activity calls are given as the source filed them. No stated cut-off is given here; in the data, active means growth inhibition above about 70%; inactive means the rest.
growth inhibition values for the compounds below.

Reference set, count: 2
CC(C)(C)SCC(NC(=O)OCc1ccccc1)C(=O)O (configuration not stated)    10.8% (inactive)
CCOC(=N)N1[C@H](C)[C@@H]1C    43.1% (inactive)

Supply growth inhibition value. Item: CCOP(=O)(CC(=O)c1cc2ccccc2[nH]1)OCC -3.5% (inactive)

Supply growth inhibition value. Item: O=C(O)C(O)(c1ccccc1)c1ccsc1 (configuration not stated) 4.45% (inactive)

Supply growth inhibition value. Item: NC(=O)C(N)C(F)c1ccccc1 (configuration not stated) -11.4% (inactive)

Supply growth inhibition value. Item: CCCCCCCCCSCP(=O)(OCC)OCC 99.5% (active)

Supply growth inhibition value. Item: N=Cc1c(O)[nH]c(=O)[nH]c1=O 1.4% (inactive)

----------
test.description: NCI Yeast Anticancer Drug Screen. Data for the mlh1 rad18 strain (AID 175)
reported.conditions: S. cerevisiae mlh1 rad18 strain growth inhibition; at 50.0 µM; hits give high values
Compounds without any hit were thinned out: in the full panel of roughly 79,000, 15% have a hit.
readout.type: growth inhibition (%)
# number only, unit % dropped from output

Reference set, count: 5
CCOP(=O)(O)C1CCCC(C)[N-]1.CCOP(=O)(O)C1CCCC(C)[N-]1.[Cu+2] (stereo unspecified)    26.6
CC1(C)N(C(=S)Nc2ccccc2)C1(C)C    5.8
CC1(C)C(=O)CC[C@@]2(C)C1=CC[C@@H]1[C@@H]2CC[C@@]2(C)[C@H]1CC[C@]2(C)O    7.05
Cc1cc[n+](C)c(Cc2ccccc2)c1C    -28.9
CN1CCN(C)C12C=c1ccccc1=CC21CC1    -8.15

Here's the next entry for you.
Supply growth inhibition value. Item: CCCCNC(=O)CCl 13.8

----------
growth inhibition values for the molecules below.
test.description: NCI Yeast Anticancer Drug Screen. Data for the cln2 rad14 strain (AID 165);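 also: 0% = growth equal to vehicle treated cultures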
reported.conditions: S. cerevisiae cln2 rad14 strain, at 50.0 µM, hits give high values
Compounds without any hit were thinned out: in the full panel of roughly 79,000, 15% have a hit.
# number only, unit % dropped from output

Reference set, count: 5
O=C1NC(=O)C2(CCOCC2)C(=O)N1    -18.4
O=[N+]([O-])c1ccc(P(=O)(O)O)cc1    -22.4
CC(C)=CCC1=C(OOC2=C(CC=C(C)C)C(=O)c3ccccc3C2=O)C(=O)c2ccccc2C1=O    11.1
O=[N+]([O-])c1cc(Cl)c(Cl)c([N+](=O)[O-])c1Cl    -23.8
[Cl][Hg][c]1ccccc1N=Nc1ccccc1    97

Supply growth inhibition value. Item: COc1ccc2c3c1OC1C(O)C=CC4C(C2)N(N=O)CCC341 (stereo unspecified) 11.5

Supply growth inhibition value. Item: CN1CCCC1c1ccc[n+](C)c1 (stereo unspecified) -8.65

Supply growth inhibition value. Item: CC(C)c1cc2c(c(O)c1O)[C@@]1(C(=O)O)CCCC(C)(C)[C@@H]1CC2 92

Supply growth inhibition value. Item: Cc1cc(C)c(CCN(C)C)c(C)c1C 1.75

Supply growth inhibition value. Item: O=C(NCCN1CCOCC1)c1cc(N(CCCl)CCCl)c([N+](=O)[O-])cc1[N+](=O)[O-] 23.6

Supply growth inhibition value. Item: N#CC1=C(C#N)C(=O)C(Cl)=C(Cl)C1=O 8.7
